Emax (%) ± SEM listing for selected molecules.
target: human β3 adrenergic receptor (Homo sapiens, UniProt P13945); construct: expressed in transfected cells; host or cells: DXB-11 Chinese hamster ovary (CHO) cell line, stably transfected (phd expression vector); assay: whole cell receptor coupled c-AMP assay, human β3 receptor in CHO cells (EC50, Emax relative to isoproterenol); format: cell-based; settings: Emax ± standard error of the mean; average of at least 3 runs except where n = 1; compound tested in the isolated form listed
Sequence (P13945 whole entry): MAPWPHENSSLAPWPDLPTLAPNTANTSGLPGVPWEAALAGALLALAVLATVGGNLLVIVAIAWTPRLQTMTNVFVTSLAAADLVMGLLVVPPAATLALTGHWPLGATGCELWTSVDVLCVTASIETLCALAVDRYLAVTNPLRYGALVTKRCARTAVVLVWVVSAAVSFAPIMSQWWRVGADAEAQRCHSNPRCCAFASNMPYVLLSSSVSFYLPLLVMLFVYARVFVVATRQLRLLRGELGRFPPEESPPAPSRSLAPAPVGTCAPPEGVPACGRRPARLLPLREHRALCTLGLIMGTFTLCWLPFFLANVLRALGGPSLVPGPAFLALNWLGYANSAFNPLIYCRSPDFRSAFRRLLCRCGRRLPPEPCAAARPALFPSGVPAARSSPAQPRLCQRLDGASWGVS
Give the value in % but do not write % after it.

Completed entries (count: 2):
CC(C)(Cc1ccc(Oc2ccc(C(N)=O)cn2)cc1)NC[C@H](O)COc1ccccc1-n1ccc(C#N)c1.Cl ... 35.7
CC(C)(Cc1ccc(Oc2ncccc2C(N)=O)cc1)NC[C@H](O)COc1ccccc1-n1cccc1.Cl ... 69.2

Data request, read-out Emax (%) ± SEM, for CC(C)(Cc1ccc(Oc2ccc(C(F)(F)F)cn2)cc1)NC[C@H](O)COc1ccccc1-c1ccno1.O=C(O)C(F)(F)F 48.1

Query: Emax (%) ± SEM; subject: CC(C)(Cc1ccc(Oc2ccc(C#N)cn2)cc1)NC[C@H](O)COc1ccccc1-c1cccs1 66.1

Fill in the blank: the reported Emax (%) ± SEM of CC(C)(Cc1ccc(Oc2ncccc2C(N)=O)cc1)NC[C@H](O)COc1ccccc1-n1ccc(C#N)c1.Cl is ____. 39.0

What measured Emax (%) ± SEM goes with CC(C)(Cc1ccc(Oc2cccnc2C(N)=O)cc1)NC[C@H](O)COc1ccccc1-c1cscn1.Cl ? 55.9

# query: Emax (%) ± SEM of entry CC(C)(Cc1ccc(Oc2cccc(Cl)c2C(N)=O)cc1)NC[C@H](O)COc1ccccc1-c1cccs1.O=C(O)C(F)(F)F 76.5

Any idea what its Emax (%) ± SEM is? The molecule is CC(C)(Cc1ccc(Oc2ncccc2C(N)=O)cc1)NC[C@H](O)COc1ccccc1-c1ccon1.Cl 71.8

Return reported Emax (%) ± SEM; argument: CC(C)(Cc1ccc(Oc2ccc(C(N)=O)cn2)cc1)NC[C@H](O)COc1ccccc1N1CCCCC1.Cl.Cl 17.3

GET /values?readout=Emax (%) ± SEM&item= CC(C)(Cc1ccc(Oc2ncccc2C(N)=O)cc1)NC[C@H](O)COc1ccccc1-c1cc2ccccc2[nH]1 48.0

# lookup: Emax (%) ± SEM of CC(C)(Cc1ccc(Oc2ccc(C#N)o2)cc1)NC[C@H](O)COc1ccccc1-c1cscn1.Cl 38.2

Need Emax (%) ± SEM, item CC(C)(Cc1ccc(Oc2cccc(Cl)n2)cc1)NC[C@H](O)COc1ccccc1-c1ccno1.O=C(O)C(F)(F)F 46.0

Reported Emax (%) ± SEM, molecule CC(C)(Cc1ccc(Oc2ncccn2)cc1)NC[C@H](O)COc1ccccc1-c1ccno1.O=C(O)C(F)(F)F : ____ 45.3

Query: Emax (%) ± SEM; subject: CC(C)(Cc1ccc(Oc2ccccn2)cc1)NC[C@H](O)COc1ccccc1-c1ccno1.O=C(O)C(F)(F)F 43.6

May I ask what Emax (%) ± SEM has been recorded for CC(C)(Cc1ccc(Oc2ccc(C(N)=O)cn2)cc1)NC[C@H](O)COc1ccccc1-c1cccs1 ? 67.6

For the molecule shown here, CCOC(=O)c1ccc(Oc2ccc(CC(C)(C)NC[C@H](O)COc3ccccc3-c3cccs3)cc2)c(Cl)c1.O=C(O)C(F)(F)F , give the reported Emax (%) ± SEM. 67.6

Requested field: Emax (%) ± SEM. Item: CC(C)(Cc1ccc(Oc2ncccc2C#N)cc1)NC[C@H](O)COc1ccccc1-c1cccs1.Cl 74.1

I am curious: what Emax (%) ± SEM value has been reported for CC(C)(Cc1ccc(Oc2ncccc2C#N)cc1)NC[C@H](O)COc1ccccc1-c1nccs1 ? 70.1
